Tested on: TK-10 renal
Procedure text: NCI tumour cell line growth inhibition, 48 h
Reported GI50 by item:
Measured endpoint: GI50

• O=C1CCC2(C=C(Br)C(=O)C(Br)=C2)O1 = 2010 nM
• C[C@]12CC[C@@H]3c4ccc(O)cc4CC[C@H]3[C@@H]1CC[C@@H]2NS(=O)(=O)Cc1ccc(Cl)cc1 = 3500 nM
• O=C(NOCC1CC1)c1ccc(F)c(F)c1Nc1ccc(I)cc1Cl = 1130 nM
• Cc1nc2cccc(NCc3ccc(C(=O)NO)cc3)c2c(=O)n1-c1ccccc1 = 1760 nM
• N.N.NC(CS)C(=O)[O-].NC(CS)C(=O)[O-].[Pt+4] (stereo not given) = > 50000 nM
